# testTarget: human alpha1 nicotinic acetylcholine (nACh) receptor (Homo sapiens, UniProt P02708)
# Sequence (P02708 21-457): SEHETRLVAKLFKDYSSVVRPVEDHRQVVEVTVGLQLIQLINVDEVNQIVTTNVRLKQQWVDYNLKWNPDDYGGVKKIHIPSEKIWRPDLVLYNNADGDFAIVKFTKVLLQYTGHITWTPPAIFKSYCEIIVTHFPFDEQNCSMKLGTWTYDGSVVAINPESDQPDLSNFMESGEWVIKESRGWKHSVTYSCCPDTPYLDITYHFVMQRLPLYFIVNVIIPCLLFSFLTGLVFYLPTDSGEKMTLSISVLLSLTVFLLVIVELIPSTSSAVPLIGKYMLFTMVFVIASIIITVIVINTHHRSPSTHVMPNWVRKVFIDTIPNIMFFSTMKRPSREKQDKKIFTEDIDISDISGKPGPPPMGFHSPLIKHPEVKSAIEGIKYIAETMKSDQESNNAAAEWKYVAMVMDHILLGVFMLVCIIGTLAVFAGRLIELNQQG
# Sequence (P11230 24-501 partner): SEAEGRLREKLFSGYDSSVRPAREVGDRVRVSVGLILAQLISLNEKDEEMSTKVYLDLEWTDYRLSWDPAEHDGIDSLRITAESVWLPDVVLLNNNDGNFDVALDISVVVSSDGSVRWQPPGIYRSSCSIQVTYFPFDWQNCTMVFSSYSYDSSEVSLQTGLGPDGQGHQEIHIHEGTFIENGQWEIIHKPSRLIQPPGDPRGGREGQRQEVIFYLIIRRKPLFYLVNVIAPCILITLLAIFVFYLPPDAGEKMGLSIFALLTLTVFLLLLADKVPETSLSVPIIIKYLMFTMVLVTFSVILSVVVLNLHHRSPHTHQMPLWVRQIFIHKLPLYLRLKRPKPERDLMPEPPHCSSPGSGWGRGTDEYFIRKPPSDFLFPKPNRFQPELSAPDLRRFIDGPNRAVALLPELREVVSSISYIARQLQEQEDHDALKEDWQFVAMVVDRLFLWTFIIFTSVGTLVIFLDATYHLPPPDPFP
# Sequence (Q07001 22-517 partner): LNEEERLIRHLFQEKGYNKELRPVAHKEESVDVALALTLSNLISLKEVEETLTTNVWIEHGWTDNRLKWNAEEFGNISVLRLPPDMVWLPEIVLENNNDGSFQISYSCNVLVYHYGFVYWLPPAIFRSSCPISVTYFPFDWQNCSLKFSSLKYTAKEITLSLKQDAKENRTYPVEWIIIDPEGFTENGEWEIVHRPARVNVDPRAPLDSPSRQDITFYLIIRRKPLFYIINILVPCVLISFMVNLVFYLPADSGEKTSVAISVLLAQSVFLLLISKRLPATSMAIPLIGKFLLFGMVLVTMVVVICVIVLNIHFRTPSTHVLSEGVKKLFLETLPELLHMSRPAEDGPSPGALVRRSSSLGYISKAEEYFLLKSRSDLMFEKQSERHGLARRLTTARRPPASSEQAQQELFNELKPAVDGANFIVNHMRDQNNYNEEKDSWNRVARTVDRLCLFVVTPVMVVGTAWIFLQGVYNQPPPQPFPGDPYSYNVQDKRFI
# testDescription: Nicotinic acetylcholine receptor antagonism assay, IONFlux automated patch clamp (Example 203)
# Type: cell-based
# runConditions: maximum percentage antagonism at maximum concentration tested 100 μM; read-out: Maximum Response
attributeMeasured: Emax at 100 µM (%)
Numeric only. Scale: %

Example compounds with recorded Emax at 100 µM:
compoundStructure: CC(C)N(C)[C@@H]1CC[C@H](N2CC[C@H](Nc3ncnc4ccc(C(F)(F)F)cc34)C2=O)[C@H](NC(=O)[C@H]2CC[C@H](C(=O)NCCCOCCCCOCCCNC(=O)[C@H]3CC(=O)N(C)[C@@H]3c3cccnc3)CC2)C1
unitAbbreviation: %
measValue: 44.9
//
compoundStructure: CC(C)N(C)[C@@H]1CC[C@H](N2CC[C@H](Nc3ncnc4ccc(C(F)(F)F)cc34)C2=O)[C@H](NC(=O)[C@H]2C[C@@H](NC(=O)CCOCCOCCNC(=O)CCNC(=O)[C@H]3CC(=O)N(C)[C@@H]3c3cccnc3)C2)C1
unitAbbreviation: %
measValue: 56.7
//
compoundStructure: CC(C)N(C)[C@@H]1CC[C@H](N2CC[C@H](Nc3ncnc4ccc(C(F)(F)F)cc34)C2=O)[C@H](NC(=O)CCOCCNC(=O)CCOCCNC(=O)COCCNC(=O)[C@H]2CC(=O)N(C)[C@@H]2c2cccnc2)C1
unitAbbreviation: %
measValue: 75.7

Continue with the next compound.
Incoming: Name the reported Emax at 100 µM value associated with the compound CC(C)N(C)[C@@H]1CC[C@H](N2CC[C@H](Nc3ncnc4ccc(C(F)(F)F)cc34)C2=O)[C@H](NC(=O)[C@H]2CC[C@@H](NC(=O)CCCO[C@H]3CC[C@H](OCCNC(=O)[C@H]4CC(=O)N(C)[C@@H]4c4cccnc4)CC3)CC2)C1
Outgoing: 40.5

----------
# Test system: endogenous target monocytes in human PBMC
# testDescription: PBMC ex vivo monocyte depletion flow cytometry assay (Example 200)
# Type: cell-based
# runConditions: with anti-cotinine antibody (SEQ ID NO: 11/12), 18-24 hours, EC50 in molar, read-out: Ex Vivo Depletion Assay pEC50 (converted)
Entries and their EC50
Numeric only. Scale: nM

Example compounds with recorded EC50:
compound: CC(C)N(C)[C@@H]1CC[C@H](N2CC[C@H](Nc3ncnc4ccc(C(F)(F)F)cc34)C2=O)[C@H](NC(=O)C2CCN(CCOCCOCCOCCOCCNC(=O)[C@H]3CC(=O)N(C)[C@@H]3c3cccnc3)CC2)C1 [Example 147]
testTarget: endogenous target monocytes in human PBMC
unitAbbreviation: nM
EC50: 0.631
//
compound: CN1C(=O)C[C@H](C(=O)NCC(=O)NCCOCCOCCC(=O)N[C@H]2CC[C@@H](C(=O)N[C@@H]3C[C@H](NC(C)(C)C)CC[C@@H]3N3CC[C@H](Nc4ncnc5ccc(C(F)(F)F)cc45)C3=O)CC2)[C@H]1c1cccnc1 [Example 65]
testTarget: endogenous target monocytes in human PBMC
unitAbbreviation: nM
EC50: 100000
//
compound: CC(C)N(C)[C@@H]1CC[C@H](N2CC[C@H](Nc3ncnc4ccc(C(F)(F)F)cc34)C2=O)[C@H](NC(=O)[C@H]2C[C@H](NC(=O)CCO[C@H]3CC[C@H](OCCNC(=O)[C@H]4CC(=O)N(C)[C@@H]4c4cccnc4)CC3)C2)C1 [Example 117]
testTarget: endogenous target monocytes in human PBMC
unitAbbreviation: nM
EC50: 3.98
//
compound: CC(C)N(C)[C@@H]1CC[C@H](N2CC[C@H](Nc3ncnc4ccc(C(F)(F)F)cc34)C2=O)[C@H](NC(=O)COCCCCCCCCCOCCCCCCCNC(=O)[C@H]2CC(=O)N(C)[C@@H]2c2cccnc2)C1 [Example 153]
testTarget: endogenous target monocytes in human PBMC
unitAbbreviation: nM
EC50: 0.631
//
compound: CC(C)N(C)[C@@H]1CC[C@H](N2CC[C@H](Nc3ncnc4ccc(C(F)(F)F)cc34)C2=O)[C@H](NC(=O)[C@H]2CC[C@@H](N3CCN(S(=O)(=O)C4CCN(C(=O)[C@H](C)NC(=O)[C@H]5CC(=O)N(C)[C@@H]5c5cccnc5)CC4)CC3)CC2)C1 [Example 71]
testTarget: endogenous target monocytes in human PBMC
unitAbbreviation: nM
EC50: 0.794

Incoming: Name the reported EC50 value associated with the compound CC(C)N(C)[C@@H]1CC[C@H](N2CC[C@H](Nc3ncnc4ccc(C(F)(F)F)cc34)C2=O)[C@H](NC(=O)CCOCCC(=O)N2CCC3(CCC(C(=O)NCCNC(=O)[C@H]4CC(=O)N(C)[C@@H]4c4cccnc4)CC3)CC2)C1 [Example 167]
Outgoing: 1.58

Incoming: Name the reported EC50 value associated with the compound CC(C)N(C)[C@@H]1CC[C@H](N2CC[C@H](Nc3ncnc4ccc(C(F)(F)F)cc34)C2=O)[C@H](NC(=O)C2CCN(C(=O)CCOCCOCCOCCNC(=O)[C@H]3CC(=O)N(C)[C@@H]3c3cccnc3)CC2)C1 [Example 29]
Outgoing: 2.51

Incoming: Name the reported EC50 value associated with the compound CC(C)N(C)[C@@H]1CC[C@H](N2CC[C@H](Nc3ncnc4ccc(C(F)(F)F)cc34)C2=O)[C@H](NC(=O)[C@H]2CC[C@@H](C3CCN(C(=O)CCOCCOCCNC(=O)[C@H]4CC(=O)N(C)[C@@H]4c4cccnc4)CC3)CC2)C1 [Example 72]
Outgoing: 7.94

The reported numbers originate from patent US12521393B2.
